Parameter IC50, tested on mouse NPY Y5 receptor (Mus musculus (Mouse)), listed per item.
Sequence (O70342 whole entry): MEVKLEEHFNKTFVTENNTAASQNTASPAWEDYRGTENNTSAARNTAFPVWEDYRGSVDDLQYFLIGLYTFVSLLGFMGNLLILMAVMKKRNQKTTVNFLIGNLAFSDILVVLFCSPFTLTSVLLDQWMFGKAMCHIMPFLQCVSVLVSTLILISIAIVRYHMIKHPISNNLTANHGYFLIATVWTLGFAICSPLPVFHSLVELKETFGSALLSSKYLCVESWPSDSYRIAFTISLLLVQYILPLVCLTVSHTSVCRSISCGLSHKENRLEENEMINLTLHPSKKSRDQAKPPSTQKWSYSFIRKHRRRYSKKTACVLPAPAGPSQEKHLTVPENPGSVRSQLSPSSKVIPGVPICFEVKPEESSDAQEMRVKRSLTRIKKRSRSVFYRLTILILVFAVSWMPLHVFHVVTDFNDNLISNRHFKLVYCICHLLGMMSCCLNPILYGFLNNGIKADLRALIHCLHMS
EXPERIMENTAL_ENDPOINT: IC50 (nM)

# count of solved cases: 5
C[C@@H]1CN(c2ccc(NC(=O)[C@H]3CC[C@@H](Oc4cc(Cl)ccc4C#N)CC3)cc2)C[C@H](C)O1 [Ic-12]    1.1
O=C(Nc1ccn(-c2ccccc2F)n1)[C@H]1CC[C@@H](Nc2cccc(F)n2)CC1 [Ib-1]    2.9
CC(C)n1c(=O)oc2cc(NC(=O)[C@H]3CC[C@@H](NC(=O)c4ccon4)CC3)ccc21 [Ia-32]    3.3
C[C@@H]1CN(c2ccc(NC(=O)[C@H]3CC[C@@H](Oc4cc(Cl)ccn4)CC3)cc2)C[C@H](C)O1 [Ic-5]    1.5
N#Cc1ccccc1C(=O)N[C@H]1CC[C@@H](C(=O)Nc2ccn(-c3ccccc3F)n2)CC1 [Ia-24]    2.9

[A] O=C(N[C@H]1CC[C@@H](c2nc(-c3cccc(Cl)c3)c[nH]2)CC1)c1ccon1 [Ia-42]
[B] O=C(N[C@H]1CC[C@@H](c2nc(-c3ccc(Cl)c(Cl)c3)c[nH]2)CC1)c1ccon1 [Ia-40]
[C] O=C(N[C@H]1CC[C@@H](C(=O)Nc2ccc(-c3ccccc3F)cc2)CC1)c1ccon1 [Ia-30]
Request: Please list these in order of increasing IC50. Thank you! Please list the labels in the order you were asked to rank them.
Result: B, C, A

[A] O=C(N[C@H]1CC[C@@H](C(=O)Nc2ccn(-c3ccccc3F)n2)CC1)c1cccc(F)n1 [Ia-2]
[B] O=C(Nc1ccn(-c2ccccc2F)n1)[C@H]1CC[C@@H](N2c3ccccc3OS2(=O)=O)CC1 [Id-8]
[C] O=C(N[C@H]1CC[C@@H](C(=O)Nc2ccn(-c3ccccc3F)n2)CC1)c1cccc(Cl)n1 [Ia-4]
Request: Please list these in order of increasing IC50. Thank you! Please list the labels in the order you were asked to rank them.
Result: B, A, C
(B: 0.58 nM, A: 1.6 nM, C: 3.8 nM)

[1] CC(C)n1c(=O)oc2cc(NC(=O)[C@H]3CC[C@@H](Nc4cccc(F)n4)CC3)ccc21 [Ib-4]
[2] CC(C)n1c(=O)oc2cc(NC(=O)[C@H]3CC[C@@H](Oc4cc(C(F)(F)F)ccn4)CC3)ccc21 [Ic-16]
Request: Which item exceeds the other in IC50, 1 or 2 ? Return value: the label identifying the chosen record.
Result: 1
(1: 1.5 nM, 2: 0.41 nM)

[P] O=C(N[C@H]1CC[C@@H](C(=O)Nc2ccc(-c3ccccc3)cc2)CC1)c1ccon1 [Ia-35]
[Q] C[C@@H]1CN(c2ccc(NC(=O)[C@H]3CC[C@@H](Oc4cc(C(F)(F)F)ccc4C#N)CC3)cc2)C[C@H](C)O1 [Ic-11]
Request: Which item exceeds the other in IC50, P or Q ? Return value: the label identifying the chosen record.
Result: Q
(Q: 1.8 nM, P: 0.65 nM)

Data provenance: patent US8653125B2
